Record: pKi reported on Neurotensin receptor type 1 (Rattus norvegicus).
Sequence (P20789 whole entry): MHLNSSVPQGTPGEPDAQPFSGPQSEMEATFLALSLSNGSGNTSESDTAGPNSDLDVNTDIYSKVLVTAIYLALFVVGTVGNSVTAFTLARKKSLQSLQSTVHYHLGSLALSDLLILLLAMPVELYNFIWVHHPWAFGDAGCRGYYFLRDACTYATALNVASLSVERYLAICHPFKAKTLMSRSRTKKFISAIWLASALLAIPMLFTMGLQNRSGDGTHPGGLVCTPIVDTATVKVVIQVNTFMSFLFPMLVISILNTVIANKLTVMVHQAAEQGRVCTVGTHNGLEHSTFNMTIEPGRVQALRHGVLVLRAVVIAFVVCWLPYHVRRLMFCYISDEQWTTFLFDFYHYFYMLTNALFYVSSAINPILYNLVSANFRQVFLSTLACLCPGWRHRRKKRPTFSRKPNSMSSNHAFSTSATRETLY
Where a SMILES comes first, the peptide text is derived from it. The star is where a group is joined. Adamantane1carbonyl = O=C(C12CC3CC(CC(C3)C1)C2)*
Give bare numbers, as −log10 of the molar value.

molecule="CC[C@H](C)[C@H](NC(=O)[C@H](Cc1ccc(O)cc1)NC(=O)[C@@H]1CCCN1C(=O)[C@H](CCCCN)NC(=O)C12CC3CC(CC(C3)C1)C2)C(=O)N[C@@H](CC(C)C)C(=O)O (Adamantane1carbonyl-KPYIL-OH)" measurement=6.93

# input Query pKi for CC[C@H](C)[C@H](NC(=O)[C@H](Cc1ccc(O)cc1)NNCC(=O)[C@@H]1CCCN1C(=O)[C@H](CCCCN)NC(=O)C12C[C@H]3C[C@@H](C1)C[C@@H](C2)C3)C(=O)N[C@@H](CC(C)C)C(=O)O
# output 5.79
